Tested on: NCI-H358 (K-Ras G12C)
assayNotes: CellTiter-Glo cell viability assay, NCI-H358
Format: cell-based, human
runConditions: Homo sapiens, NCI-H358, 120 h, NCI-H358, 5-day treatment; class symbols; read-out: Additional H358 Cell Viability assay data (K-Ras G12C, IC50)
Method: Note—The following protocol describes a procedure for monitoring cell viability of K-Ras mutant cancer cell lines in response to a compound of the invention. Other RAS isoforms may be employed, though the number of cells to be seeded will vary based on cell line used. Test compounds (132.5 nL) were directly dispensed into the assay plates containing cells. […] Luminescence was measured using the PerkinElmer Enspire. […]
Some molecules, each annotated with its measured IC50.

The examples below pair each entry with its known result.
The molecule listed as C=CS(=O)(=O)N1CC[C@H](C(=O)N(C)[C@H](C(=O)N[C@H]2Cc3cc(O)cc(c3)-c3ccc4c(c3)c(c(-c3cccnc3[C@H](C)OC)n4CC)CC(C)(C)COC(=O)[C@@H]3CCCN(N3)C2=O)C(C)C)C1 (atropisomer, axis not shown) has a reported IC50 of 10 to 100 nM

The molecule listed as C=CC(=O)N1CCO[C@H]2CN(C(=O)N(C)[C@H](C(=O)N[C@H]3Cc4cccc(c4)-c4ccc5c(c4)c(c(-c4cccnc4[C@H](C)OC)n5CC)CC(C)(C)COC(=O)[C@@H]4CCCN(N4)C3=O)C(C)C)C[C@H]21 (atropisomer, axis not shown) has a reported IC50 of < 10 nM

The molecule listed as "C=CC(=O)N1CC[C@H](C(=O)N(C)[C@H](C(=O)N[C@H]2CN(C)C(=O)Cc3ccc4c(c3)c(c(-c3cccnc3COC)n4CC)CC(C)(C)COC(=O)[C@@H]3CCCN(N3)C2=O)C(C)C)C1" has a reported IC50 of > 1000 nM

The molecule listed as CCn1c(-c2cccnc2[C@H](C)OC)c2c3cc(ccc31)-c1cc(F)cc(c1)C[C@H](NC(=O)[C@@H](COC1CN(C(=O)C#CC(C)(C)N(C)C)C1)C(C)C)C(=O)N1CCC[C@H](N1)C(=O)OCC(C)(C)C2 (atropisomer, axis not shown) has a reported IC50 of < 10 nM

---
The molecule listed as "C/C=C(\C#N)C(=O)N1CC[C@H](C(=O)N(C)[C@H](C(=O)N[C@H]2Cc3cc(O)cc(c3)-c3ccc4c(c3)c(c(-c3cccnc3COC)n4CC)CC(C)(C)COC(=O)[C@@H]3CCCN(N3)C2=O)C(C)C)C1" has a reported IC50 of > 1000 nM

The molecule listed as CO[C@@H](COC1CN(C(=O)C#CC(C)(C)N(C)C)C1)C(=O)N[C@H]1Cc2coc(n2)-c2ccc3c(c2)c(c(-c2cccnc2[C@H](C)OC)n3CC(F)(F)F)CC(C)(C)COC(=O)[C@@H]2CCCN(N2)C1=O (atropisomer, axis not shown) has a reported IC50 of < 10 nM

The molecule listed as "C=CC(=O)N1CC[C@H](C(=O)N(C)[C@H](C(=O)N[C@H]2Cc3cc(O)cc(c3)-c3ccc4c(c3)c(c(-c3ccccc3)n4CC)CC(C)(C)COC(=O)[C@@H]3CCCN(N3)C2=O)C(C)C)C1" has a reported IC50 of 100 to 1000 nM

The molecule listed as "CCn1c(-c2cccnc2)c2c3cc(ccc31)-c1csc(c1)C[C@H](NC(=O)[C@H](C(C)C)N(C)C(=O)[C@H]1CCN(C(=O)C#CCN3CCOCC3)C1)C(=O)N1CCC[C@H](N1)C(=O)OCC(C)(C)C2" has a reported IC50 of 100 to 1000 nM

The values you see were collected from patent US11566007B2.
